Values compiled from patent US20100249408A1.

biological target: amyloid (aggregated Aβ1-40) (Homo sapiens, UniProt P05067); construct: Aβ1-40 (Peptide Institute) was dissolved in phosphate buffer (pH 7.4); assay: Measurement of amyloid affinity: in vitro binding test, inhibition of [125I]3′-I-BTA-0 binding
Sequence (P05067 672-711 limits assumed): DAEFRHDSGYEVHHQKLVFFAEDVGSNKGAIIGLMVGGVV
Quick list: pIC50 per entry.
In simple prose, pIC50 is minus the logarithm base ten of a concentration in moles per litre.

Here's what some known entries look like.
In [3]: df
Out[3]:
                                   molecule  assay_endpoint  experimental_value
0              Oc1ccc(-c2cn3cc(I)ccc3n2)cc1           pIC50                7.34
1  Cc1ccc2nc(-c3ccc(N(C)C)cc3)sc2c1 [Compound 6-Me-BTA-2, reference compound]           pIC50                7.60

Quick one: pIC50 of Nc1ccc(-c2nc3ccccc3s2)cc1I [3′-I-BTA-0, 2-(3′-Iodo-4′-aminophenyl)benzothiazole, reference compound] ?
8.00

Next up: Oc1ccc(-c2cn3cc(OCCCF)ccc3n2)cc1
7.26

Next up: Oc1ccc(-c2cn3cc(I)cnc3n2)cc1
7.27

Next up: Oc1ccc(-c2cn3cc(Br)ccc3n2)cc1
8.36

----------
Quick list: logPoctanol value per entry.
assay: Partition coefficient based on the octanol extraction method (logPoctanol); details: octanol / 10 mmol/L phosphate buffer (pH 7.4), radioactivity count

In [3]: df
Out[3]:
                            molecule  experimental_value
0  Oc1ccc(-c2cn3cccc([123I])c3n2)cc1                 3.0
1  Oc1ccc(-c2cn3cc([123I])cnc3n2)cc1                 1.7

Quick one: logPoctanol value of CN(C)c1ccc(-c2cn3cc([125I])ccc3n2)cc1 [[^125I]-IMPY, reference compound] ?
2.1

Next up: Oc1ccc(-c2cn3cc([125I])ccc3n2)cc1
1.6

Next up: Oc1ccc(-c2cn3cc([123I])ncc3n2)cc1
2.3
